Reference for the values: patent US6960597B2

- EXPERIMENTAL TARGET: human α4β7 (Homo sapiens, UniProt P13612+P26010)
- Construct: expressed in transfected cells
- Sequence (P13612 34-1032): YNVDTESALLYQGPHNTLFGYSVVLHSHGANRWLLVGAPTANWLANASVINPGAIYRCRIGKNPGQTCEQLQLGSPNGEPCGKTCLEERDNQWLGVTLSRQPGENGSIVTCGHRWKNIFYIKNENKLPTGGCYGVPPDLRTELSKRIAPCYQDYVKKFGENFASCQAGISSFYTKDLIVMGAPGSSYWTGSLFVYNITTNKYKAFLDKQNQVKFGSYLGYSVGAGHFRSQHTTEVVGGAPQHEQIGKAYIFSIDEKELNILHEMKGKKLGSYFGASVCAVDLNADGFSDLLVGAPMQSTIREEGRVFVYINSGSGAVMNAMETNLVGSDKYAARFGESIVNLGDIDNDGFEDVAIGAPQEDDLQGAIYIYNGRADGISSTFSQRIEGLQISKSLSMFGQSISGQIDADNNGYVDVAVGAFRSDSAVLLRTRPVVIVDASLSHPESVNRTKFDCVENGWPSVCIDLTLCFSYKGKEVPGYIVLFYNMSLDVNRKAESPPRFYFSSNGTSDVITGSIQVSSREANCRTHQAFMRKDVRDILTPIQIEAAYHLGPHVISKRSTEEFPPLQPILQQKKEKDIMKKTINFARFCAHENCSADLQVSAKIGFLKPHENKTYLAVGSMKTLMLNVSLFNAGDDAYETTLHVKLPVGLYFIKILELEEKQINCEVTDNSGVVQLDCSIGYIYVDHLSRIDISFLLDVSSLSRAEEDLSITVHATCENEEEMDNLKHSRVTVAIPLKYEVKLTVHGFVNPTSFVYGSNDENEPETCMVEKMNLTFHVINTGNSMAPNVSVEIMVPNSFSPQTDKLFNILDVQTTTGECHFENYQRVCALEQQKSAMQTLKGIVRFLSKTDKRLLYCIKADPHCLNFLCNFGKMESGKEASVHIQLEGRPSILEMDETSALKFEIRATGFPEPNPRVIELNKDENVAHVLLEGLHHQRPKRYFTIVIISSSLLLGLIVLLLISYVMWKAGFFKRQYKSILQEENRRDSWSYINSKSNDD
- Sequence (P26010 20-798): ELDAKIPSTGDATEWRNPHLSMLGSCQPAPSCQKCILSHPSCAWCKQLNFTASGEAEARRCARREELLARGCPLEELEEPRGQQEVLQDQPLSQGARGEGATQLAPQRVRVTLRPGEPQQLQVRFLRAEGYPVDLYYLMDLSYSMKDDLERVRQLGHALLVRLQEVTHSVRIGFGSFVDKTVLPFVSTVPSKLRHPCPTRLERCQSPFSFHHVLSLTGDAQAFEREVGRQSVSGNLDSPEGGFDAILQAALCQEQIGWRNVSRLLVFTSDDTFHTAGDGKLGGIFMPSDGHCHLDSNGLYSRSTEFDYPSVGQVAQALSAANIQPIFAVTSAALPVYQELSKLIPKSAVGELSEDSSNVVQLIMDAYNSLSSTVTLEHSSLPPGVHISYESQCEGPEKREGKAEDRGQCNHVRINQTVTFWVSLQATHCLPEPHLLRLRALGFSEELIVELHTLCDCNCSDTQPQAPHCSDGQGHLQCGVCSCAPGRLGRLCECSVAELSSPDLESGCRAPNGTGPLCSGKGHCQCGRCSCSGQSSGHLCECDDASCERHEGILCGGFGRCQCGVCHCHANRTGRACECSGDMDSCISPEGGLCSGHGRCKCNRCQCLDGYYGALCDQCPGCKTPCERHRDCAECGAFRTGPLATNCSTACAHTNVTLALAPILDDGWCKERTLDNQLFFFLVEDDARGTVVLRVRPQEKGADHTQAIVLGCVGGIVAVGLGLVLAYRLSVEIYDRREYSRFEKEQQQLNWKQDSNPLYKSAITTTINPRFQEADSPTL
- PROTOCOL: α4β7-K562 Cell Adhesion Assay (α4β7 Mediated Adhesion/VCAM-1)
- Format: cell-based
- CONDITION DETAILS: Table IV; μM; read-out: Inhibition of Binding of K562 Cells to Immobilized VCAM-1 IC50
VALUE KIND: IC50

O=C(Nc1ccc(C[C@H](NC(=O)C2C3CCC(CC3)N2S(=O)(=O)c2ccccc2)C(=O)O)cc1)Nc1c(Cl)cccc1Cl (some centres unmarked) :: > 5 µM
O=C(O)[C@H](Cc1ccc(OCc2c(Cl)cccc2Cl)cc1)NC(=O)[C@H]1C2CCC(CC2)N1S(=O)(=O)c1ccccc1 :: > 10 µM
Cc1ccc(S(=O)(=O)N2C3CCC(CC3)C2C(=O)N[C@@H](Cc2ccc(-n3cccc3)cc2)C(=O)O)cc1 (some centres unmarked) :: > 10 µM

INPUT: Identify the measured IC50 of Cc1ccc(S(=O)(=O)N2C3CCC(CC3)C2C(=O)N[C@@H](Cc2cccc(NC(=O)c3c(F)cccc3F)c2)C(=O)O)cc1 (some centres unmarked) for human α4β7 (Homo sapiens, UniProt P13612+P26010).
OUTPUT: > 10 µM

INPUT: Lookup: IC50 / human α4β7 (Homo sapiens, UniProt P13612+P26010) / Cc1ccc(S(=O)(=O)N2C3CCC(CC3)C2C(=O)N[C@@H](Cc2ccc(NC(=O)c3ccccc3)cc2)C(=O)O)cc1 (some centres unmarked)
OUTPUT: > 10 µM

INPUT: What IC50 appears in the records for this compound with human α4β7 (Homo sapiens, UniProt P13612+P26010)? CC(C)(C)C(=O)Nc1ccc(C[C@H](NC(=O)[C@@H]2C3CCC(CC3)N2S(=O)(=O)c2ccccc2)C(=O)O)cc1
OUTPUT: > 10 µM

INPUT: Notebook entry, human α4β7 (Homo sapiens, UniProt P13612+P26010) assay: IC50 of Cc1ccc(S(=O)(=O)N2C3CCC(CC3)C2C(=O)N[C@@H](Cc2ccc(C#Cc3ccc(C(C)(C)C)cc3)cc2)C(=O)O)cc1 (some centres unmarked) = ?
OUTPUT: > 10 µM

INPUT: Item: CN(C(=O)C1C2CCC(CC2)N1S(=O)(=O)c1ccccc1)[C@@H](Cc1ccc(OCc2c(Cl)cccc2Cl)cc1)C(=O)O (some centres unmarked) Test system: human α4β7 (Homo sapiens, UniProt P13612+P26010) Read-out: IC50 Value: ?
OUTPUT: > 10 µM

INPUT: Request body: readout IC50, system human α4β7 (Homo sapiens, UniProt P13612+P26010), query Cc1ccc(C)n1-c1ccc(C[C@H](NC(=O)C2C3CCC(CC3)N2S(=O)(=O)c2ccccc2)C(=O)O)cc1 (some centres unmarked) . Return the value.
OUTPUT: > 10 µM

INPUT: So what IC50 did Cc1ccc(S(=O)(=O)N2C3CCC(CC3)C2C(=O)N[C@@H](Cc2ccc(NC(=O)Cc3c(Cl)cccc3Cl)cc2)C(=O)O)cc1 (some centres unmarked) get with human α4β7 (Homo sapiens, UniProt P13612+P26010)?
OUTPUT: > 10 µM
